Property: pIC50; scope: individual molecules
target: human FAAH-1 (Homo sapiens); experiment: Whole cell anandamide hydrolysis assay (HeLa clone 5c5 transfected with human FAAH-1); format: cell-based; settings: HeLa clone 5c5 expressing human FAAH-1; read-out: human FAAH whole cell IC50
Sequence (O00519 whole entry): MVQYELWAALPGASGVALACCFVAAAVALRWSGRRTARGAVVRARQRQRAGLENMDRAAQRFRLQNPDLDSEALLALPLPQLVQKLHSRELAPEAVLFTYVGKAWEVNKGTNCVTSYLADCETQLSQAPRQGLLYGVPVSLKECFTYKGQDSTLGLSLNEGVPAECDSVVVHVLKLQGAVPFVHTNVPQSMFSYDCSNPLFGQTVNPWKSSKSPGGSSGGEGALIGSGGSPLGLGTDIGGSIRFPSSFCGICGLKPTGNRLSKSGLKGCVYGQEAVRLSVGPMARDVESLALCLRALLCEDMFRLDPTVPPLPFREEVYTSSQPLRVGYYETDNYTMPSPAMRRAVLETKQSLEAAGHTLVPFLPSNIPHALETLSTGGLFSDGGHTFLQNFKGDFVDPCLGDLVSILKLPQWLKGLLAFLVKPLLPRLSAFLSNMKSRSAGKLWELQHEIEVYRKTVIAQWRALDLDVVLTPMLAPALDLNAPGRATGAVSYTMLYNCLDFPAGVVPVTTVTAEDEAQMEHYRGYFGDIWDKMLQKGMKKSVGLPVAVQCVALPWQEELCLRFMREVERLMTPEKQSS
pIC50: −log10 of the molar value.

>>> print(df.to_string())
                                smiles_text  observed_property  result
0  COc1cc(NC(=O)C(=O)c2c(C)n(Cc3ccc(Cl)cc3)c3ccc(O)cc23)ccn1              pIC50  > 7.00
1  COc1ccc2c(c1)c(C(=O)C(=O)Nc1ccnc(OC)c1)c(C)n2Cc1ncc(Cl)cc1F              pIC50  > 7.00
2  CNc1ccc2c(c1)c(C(=O)C(=O)Nc1ccnc(OC)c1)c(C)n2Cc1ccc(Cl)cc1              pIC50  > 7.00
3  COc1ccc2c(c1)c(C(=O)C(=O)Nc1ccnc(OC)c1)c(C)n2Cc1cnc(Cl)cn1              pIC50  > 7.00
4  COc1cc(NC(=O)C(=O)c2c(C)n(Cc3ccc(Cl)cc3)c3cc(C)c(OC)cc23)ccn1              pIC50  > 7.00

Quick one: pIC50 of COc1cc(NC(=O)C(=O)c2c(C)n(Cc3ccc(Cl)cc3)c3ccc(N(C)C(=O)OC(C)(C)C)cc23)ccn1 ?
6.00 to 7.00

Please report the recorded pIC50 for COc1ccc2c(c1)c(C(=O)C(=O)Nc1ccnc(OC)c1)c(C)n2Cc1cccnc1 .
> 7.00

###

Below is a list of entries, each paired with its recorded IC50 value.
target: FAAH (Homo sapiens); construct: Reactions were initiated by adding 12.5 μg of brain microsome; tissue ABS, Inc; host or cells: human brain cerebral cortex, membrane/microsome fraction pooled from 3 donors; experiment: FAAH inhibition, human brain membrane homogenate assay; type: biochemical; settings: human brain homogenate; average activity; read-out: Human brain Extract FAAH IC50
Sequence (O00519 whole entry): as above

Illustrative cases are given below, each with its answer.
>>> print(df.to_string())
                                smiles_text        tested_system            result
0  COc1ccc2c(c1)c(C(=O)C(=O)Nc1ccnc(OC)c1F)c(C)n2Cc1ccc(Cl)cc1  FAAH (Homo sapiens)    100 to 1000 nM
1  COc1cc(NC(=O)C(=O)c2c(C)n(Cc3ccc(Cl)cn3)c3ccccc23)ccn1  FAAH (Homo sapiens)          < 100 nM
2  COc1cc(NC(=O)C(=O)c2c(C)n(Cc3ccc(Cl)cc3)c3ccc(C(=O)O)cc23)ccn1  FAAH (Homo sapiens)  1000 to 10000 nM
3  COc1cc(NC(=O)C(=O)c2c(C)n(Cc3ncc(Cl)cc3F)c3cc(Cl)c(OC)cc23)ccn1  FAAH (Homo sapiens)          < 100 nM
4  COc1cc(NC(=O)C(=O)c2c(C)n(Cc3ccc(Cl)cc3)c3cccc(OC)c23)ccn1  FAAH (Homo sapiens)          < 100 nM

Consider the compound shown here: COc1cc(NC(=O)C(=O)c2c(C)n(Cc3ccc(Cl)cc3)c3ccc(O)cc23)ccn1 What is its recorded IC50?
< 100 nM

Which IC50 value is on record for CNc1ccc2c(c1)c(C(=O)C(=O)Nc1ccnc(OC)c1)c(C)n2Cc1ccc(Cl)cc1 ?
< 100 nM

May I ask what IC50 has been recorded for COc1cnc2c(c1)c(C(=O)C(=O)Nc1ccnc(OC)c1)c(C)n2Cc1ccc(Cl)cc1Cl ?
< 100 nM
